- Tested on: OVCAR-5
- Protocol details: NCI tumour cell line growth inhibition, 48 h
Active and inactive are the calls of the source. Rule as the data show it: active = GI50 up to about 1.1 µM and inactive = higher.
In this section, each of the compounds is paired with its reported GI50.

Please review the following examples before continuing.
[
  {
    "Compound": "CCCCCC(=O)c1ccc2[nH]c3c(C)cc([N+](=O)[O-])c(C)c3c2c1",
    "Target or test system": "OVCAR-5",
    "Result type": "GI50",
    "Result": "> 100 µM (inactive)"
  },
  {
    "Compound": "O=C1/C(=C\\c2ccc([N+](=O)[O-])cc2)Sc2scc(-c3ccc(O)c(O)c3)[n+]21",
    "Target or test system": "OVCAR-5",
    "Result type": "GI50",
    "Result": "15.3 µM (inactive)"
  },
  {
    "Compound": "Cc1ccccc1OC(C)C(=O)NN1C(=O)CC(=O)N(c2ccccc2)C1=S (stereo unspecified)",
    "Target or test system": "OVCAR-5",
    "Result type": "GI50",
    "Result": "> 100 µM (inactive)"
  },
  {
    "Compound": "CN(C)CC1CCC(=C2CCCC2)C1=O (stereo unspecified)",
    "Target or test system": "OVCAR-5",
    "Result type": "GI50",
    "Result": "17 µM (inactive)"
  },
  {
    "Compound": "CCn1nc2c3c(ncn3C(C)(C)O2)c1=O",
    "Target or test system": "OVCAR-5",
    "Result type": "GI50",
    "Result": "> 100 µM (inactive)"
  },
  {
    "Compound": "C/C=C/COc1cc(NC(=S)c2ccoc2C)ccc1OC",
    "Target or test system": "OVCAR-5",
    "Result type": "GI50",
    "Result": "> 100 µM (inactive)"
  },
  {
    "Compound": "CC(C)[N+]([O-])(CCCNc1c2ccccc2nc2cccc([N+](=O)[O-])c12)C(C)C",
    "Target or test system": "OVCAR-5",
    "Result type": "GI50",
    "Result": "< 0.0395 µM (active)"
  },
  {
    "Compound": "COc1ccc(CN2C[C@H]3[C@@H](CC(=O)O[C@H]3C)CC2=O)cc1",
    "Target or test system": "OVCAR-5",
    "Result type": "GI50",
    "Result": "> 100 µM (inactive)"
  }
]

Prompt line: Find GI50 (OVCAR-5) for the entry Nc1ccc(Oc2ccc(C3(c4ccc(Oc5ccc(N)cc5)cc4)C4CC5CC(C4)CC3C5)cc2)cc1
Response line: 19.9 µM (inactive)

Prompt line: Find GI50 (OVCAR-5) for the entry CS/C(=C(\S)c1ccccc1)c1ccccc1
Response line: > 100 µM (inactive)

The reported measurements were obtained from ChEMBL document CHEMBL1201862.
